Target: recombinant human AChE (Homo sapiens)
Construct: gift of Dr Florian Nachon (IRBA, Brétigny-sur-Orge, France)
Sequence (P22303 32-614): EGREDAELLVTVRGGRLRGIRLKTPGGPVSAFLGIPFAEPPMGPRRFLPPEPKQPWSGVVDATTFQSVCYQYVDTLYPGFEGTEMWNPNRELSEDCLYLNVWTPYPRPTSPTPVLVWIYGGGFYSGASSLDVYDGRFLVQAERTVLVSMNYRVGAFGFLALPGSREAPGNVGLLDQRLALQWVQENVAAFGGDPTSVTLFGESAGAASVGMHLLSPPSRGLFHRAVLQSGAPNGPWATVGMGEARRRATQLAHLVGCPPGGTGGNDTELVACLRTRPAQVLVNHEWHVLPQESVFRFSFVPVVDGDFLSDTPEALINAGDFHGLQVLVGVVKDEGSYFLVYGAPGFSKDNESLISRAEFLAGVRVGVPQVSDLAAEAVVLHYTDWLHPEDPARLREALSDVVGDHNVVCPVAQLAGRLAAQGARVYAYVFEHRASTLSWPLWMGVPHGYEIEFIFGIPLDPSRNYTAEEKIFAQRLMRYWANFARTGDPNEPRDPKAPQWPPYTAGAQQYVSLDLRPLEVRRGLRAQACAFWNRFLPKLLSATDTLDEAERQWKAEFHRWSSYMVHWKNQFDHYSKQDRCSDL
Test: Inhibition of AChE (modified Ellman method, Hunter–Downs evaluation)
Type: biochemical
Conditions: according to Hunter–Downs plot
Description: All measurements of cholinesterase activity were performed in 0.1 M sodium phosphate buffer (pH 7.4). […] The final content of DMSO in measurements was up to 0.4%, and inhibitory reactions containing more than 0.1% of DMSO were corrected for control reactions containing a corresponding concentration of DMSO. No side interactions of the tested compounds with ATCh or DTNB were detected. […] The selectivity index (SI) was determined using the following ratio: SI = Ki(AChE)/Ki(BChE).
measured_property: AChE type of inhibition (in words)

CC(C)(C)C1=CC(=O)C=C(SCCO)C1=O [Compound 2] ... mixed
